- Tested on: A549
- assay_name: Cytotoxicity against human A549 cells after 2 days by sulforhodamine B assay
- Type: functional, cell-based
- condition_info: A549, 48 h
// boundary case: IC50 equal to 6 µg/mL maps to 0.0; strictly smaller maps to 1.0

Worked set:
{"chemical_smiles": "COc1ccc(/C=C/C(C)=O)c(O)c1", "label_value": 1.0}
{"chemical_smiles": "CCOc1cc(/C=C/C(C)=O)ccc1O", "label_value": 0.0}
{"chemical_smiles": "COc1cc(/C=C/C(C)=O)ccc1OCC=C(C)C", "label_value": 1.0}
{"chemical_smiles": "CCCOc1ccc(/C=C/C(C)=O)cc1OC", "label_value": 1.0}

State whether 6 µg/mL exceeds IC50 recorded for COc1cc(/C=C/C(C)=O)ccc1OCCC(C)C . 0.0

Try the compound COc1cccc(/C=C/C(C)=O)c1O 1.0

====

- Tested on: A549
- assay_name: Cytotoxicity against human A549 cells after 2 days by sulforhodamine B assay
- Type: functional, cell-based
- condition_info: A549, 48 h
assay_metric: log10(IC50) (log10 of the value in mg/L)
Hey, these are logged values: log10 of IC50, mg/L being the unit before logging.

Example compounds with recorded log10(IC50):
{"chemical_smiles": "COc1ccc(/C=C/C(=O)c2ccccc2)c(O)c1", "target_system": "A549", "log10(IC50)": 0.58}
{"chemical_smiles": "CC(=O)/C=C/c1cccc(F)c1O", "target_system": "A549", "log10(IC50)": 0.48}
{"chemical_smiles": "COc1ccc(/C=C/C(C)=O)cc1OC", "target_system": "A549", "log10(IC50)": 0.90}
{"chemical_smiles": "COc1cc(/C=C/C(C)=O)ccc1OC/C=C(\\C)CCC=C(C)C", "target_system": "A549", "log10(IC50)": 0.53}
{"chemical_smiles": "CCOc1cccc(/C=C/C(C)=O)c1O", "target_system": "A549", "log10(IC50)": 0.36}
{"chemical_smiles": "COc1cc(/C=C/C(=O)c2ccccc2)ccc1O", "target_system": "A549", "log10(IC50)": 0.36}
{"chemical_smiles": "COc1cc(/C=C/C(=O)CC(=O)/C=C/c2ccc(O)c(OC)c2)ccc1O", "target_system": "A549", "log10(IC50)": 0.72}

Next up:
Quick one: log10(IC50) for COc1cccc2c1C(=O)c1c(O)c3c(c(O)c1C2=O)C[C@@](O)(C(=O)CO)C[C@@H]3O[C@H]1C[C@H](N)[C@H](O)[C@H](C)O1 ? -1.00

====

- System: A549
- assay_name: Cytotoxicity against human A549 cells after 2 days by sulforhodamine B assay
- Format: functional, cell-based
- condition_info: A549, 48 h
So I've got a bunch of molecules here, and I need their IC50 values.
Answers are plain numbers, in mg/L.

{"chemical_smiles": "COc1cc(/C=C/C(C)=O)ccc1OC/C=C(\\C)CC/C=C(\\C)CCC=C(C)C", "target_system": "A549", "unit": "mg/L", "IC50": 7.4}
{"chemical_smiles": "C=CCOc1ccc(/C=C/C(C)=O)cc1OC", "target_system": "A549", "unit": "mg/L", "IC50": 5.8}

// input: 4 molecules below; output: IC50 for each
1. C/C=C/COc1ccc(/C=C/C(C)=O)cc1OC
2. COc1cccc(/C=C/C(=O)c2ccccc2)c1O
3. COc1ccc(/C=C/C(=O)c2ccccc2)cc1O
4. COc1ccc(/C=C/C(C)=O)cc1F

6.8
0.6
3.5
5.5
